System: MCF-10A
experimental details: Cytotoxicity against human MCF10A cells after 48 hrs by MTT assay
Type: cell-based
property measured: pIC50
A value of pIC50 is the negative decimal logarithm of a concentration given in moles per litre.

Some solved entries appear below for comparison.
1. CC[C@@]1(O)C[C@H](O[C@H]2C[C@H](O)[C@H](O[C@H]3CC[C@H](O[C@H]4CC[C@H](O)[C@H](C)O4)[C@H](C)O3)[C@H](C)O2)c2c(O)c3c(c(O)c2[C@H]1O)C(=O)c1cccc(O)c1C3=O | 5.28
2. CC[C@@]1(O)C[C@H](O[C@H]2C[C@H](O)[C@H](O[C@H]3CC[C@H](O[C@H]4C[C@H](O)[C@H](O)[C@H](C)O4)[C@H](C)O3)[C@H](C)O2)c2c(O)c3c(c(O)c2[C@H]1O)C(=O)c1cccc(O)c1C3=O | 4.98
3. CC[C@@]1(O)C[C@H](O)c2c(O)c3c(c(O)c2[C@H]1C(=O)OC)C(=O)c1cccc(O)c1C3=O | 5.15
4. CC[C@@]1(O)C[C@H](O[C@H]2C[C@H](O)[C@H](O[C@H]3CC[C@H](O[C@H]4CC[C@H](OC5CC[C@H](O)[C@H](C)O5)[C@H](C)O4)[C@H](C)O3)[C@H](C)O2)c2c(O)c3c(c(O)c2[C@H]1O)C(=O)c1cccc(O)c1C3=O (stereo partly specified) | 5.24
5. CC[C@@]1(O)C[C@H](O[C@H]2CC[C@H](O[C@H]3C[C@H](O)[C@H](O[C@H]4CCC(=O)[C@H](C)O4)[C@H](C)O3)[C@H](C)O2)c2c(O)c3c(c(O)c2[C@H]1O)C(=O)c1cccc(O)c1C3=O | 4.98

query: Which pIC50 value belongs to `CC[C@@]1(O)C[C@H](O[C@H]2C[C@H](O)[C@H](O[C@H]3C[C@H](O)[C@H](O[C@H]4CCC(=O)[C@H](C)O4)[C@H](C)O3)[C@H](C)O2)c2c(O)c3c(c(O)c2[C@H]1O)C(=O)c1cccc(O)c1C3=O` ?
result: 5.70

query: Reported pIC50, compound `CC[C@@]1(O)CCc2c(O)c3c(c(O)c2[C@H]1O)C(=O)c1cccc(O)c1C3=O` : ____
result: 4.92

query: Reported pIC50 for `CC[C@]1(O)Cc2c(O)c3c(c(O)c2[C@@H](O[C@H]2C[C@H](O)[C@H](O[C@H]4C[C@H](O)[C@H](O[C@H]5CC[C@H](O)[C@H](C)O5)[C@H](C)O4)[C@H](C)O2)C1)C(=O)c1c(O)cccc1C3=O` : what is it?
result: 4.77

query: I am curious: what pIC50 value has been reported for `CC[C@@]1(O)C[C@H](O[C@H]2C[C@H](O)[C@H](O[C@H]3C[C@H](O)[C@H](O[C@H]4CC[C@H](O)[C@H](C)O4)[C@H](C)O3)[C@H](C)O2)c2c(O)c3c(c(O)c2[C@H]1O)C(=O)c1cccc(O)c1C3=O` ?
result: 5.47

query: Can you share its pIC50? I mean this compound: `CC[C@@]1(O)C[C@H](O[C@H]2C[C@H](O)[C@H](O[C@H]3C[C@H](O)[C@H](O)[C@H](C)O3)[C@H](C)O2)c2c(O)c3c(c(O)c2[C@H]1O)C(=O)c1cccc(O)c1C3=O`
result: 5.60

query: Could you tell me which pIC50 is on file for `CC[C@@]1(O)C[C@H](O[C@H]2C[C@H](O)[C@H](O[C@H]3C[C@H](O)[C@H](O[C@H]4C[C@H](O)[C@H](O)[C@H](C)O4)[C@H](C)O3)[C@H](C)O2)c2c(O)c3c(c(O)c2[C@H]1O)C(=O)c1cccc(O)c1C3=O` ?
result: 5.43

query: Which pIC50 reading was recorded for the compound `CC[C@@]1(O)C[C@H](O[C@H]2CC[C@H](O[C@H]3CC[C@H](O[C@H]4CC[C@H](O)[C@H](C)O4)[C@H](C)O3)[C@H](C)O2)c2c(O)c3c(c(O)c2[C@H]1C(=O)OC)C(=O)c1cccc(O)c1C3=O` ?
result: 5.85

Origin of the recorded values: ChEMBL document CHEMBL4145577
